# TARGET OR TEST SYSTEM: single-chain tethered dimer of HIV protease (Human immunodeficiency virus 1, UniProt P04585)
# PROTOCOL DESCRIPTION: biochemical
# Type: biochemical
# Design: fused on or other part: A second copy of the same protease unit is joined to the first by a short peptide tether, giving one polypeptide
# STUDY CONDITIONS: third table headed Table 2f; read-out: HPLC Ki
QUANTITY MEASURED: Ki

## Input Find the measured Ki of ON=C1N(Cc2ccccc2)C(Cc2ccccc2)C(O)C(O)C(Cc2ccccc2)N1Cc1ccccc1 (stereo not shown) [Example 17A] and report it.
## Output 10 to 1000 nM

* * *

# TARGET OR TEST SYSTEM: single-chain tethered dimer of HIV protease (Human immunodeficiency virus 1)
# PROTOCOL DESCRIPTION: biochemical
# Type: biochemical
# Design: fused on or other part: A second copy of the same protease unit is joined to the first by a short peptide tether, giving one polypeptide
# STUDY CONDITIONS: Table 2d; HIV protease inhibition, HPLC method; read-out: HPLC K1
Parameter: Ki. Scope: all listed entries.

Check out these entries, answers already filled in.
NC(=O)c1cc(CN2C(=O)N(Cc3ccc(F)c(C(N)=NO)c3)C(Cc3ccccc3)C(O)C(O)C2Cc2ccccc2)ccc1F (stereo not shown) [15EH]: < 10 nM
CCCNC(=NO)c1cccc(CN2C(=O)N(Cc3cccc(C(=NO)NCCC)c3)C(Cc3ccccc3)C(O)C(O)C2Cc2ccccc2)c1 (stereo not shown) [15BA]: < 10 nM
CNC(=S)NCCCCCN1C(=O)N(CCCCCNC(=S)NC)C(Cc2ccccc2)C(O)C(O)C1Cc1ccccc1 (stereo not shown) [15EV]: 10 to 1000 nM
O=C1N(Cc2ccc3[nH]nc(Cl)c3c2)C(Cc2ccccc2)C(O)C(O)C(Cc2ccccc2)N1Cc1ccc2[nH]nc(Cl)c2c1 (stereo not shown) [15DI]: < 10 nM
CN1CCN(CCCN2C(=O)NC(Cc3ccccc3)C(O)C(O)C2Cc2ccccc2)CC1 (stereo not shown) [15AP]: > 1000 nM
CNC(=O)NCCCCCN1C(=O)N(CCCCCNC(=O)NC)C(Cc2ccccc2)C(O)C(O)C1Cc1ccccc1 (stereo not shown) [15ES]: 10 to 1000 nM
CN(C)Cc1nc(-c2cccc(CN3C(=O)N(Cc4cccc(-c5noc(CN(C)C)n5)c4)C(Cc4ccccc4)C(O)C(O)C3Cc3ccccc3)c2)no1.Cl.Cl (stereo not shown) [Example 15AO]: < 10 nM
O=C1N(Cc2ccc3ccccc3c2)C(Cc2ccccc2)C(O)C(O)C(Cc2ccccc2)N1Cc1ccc2[nH]nnc2c1 (stereo not shown) [15DO]: < 10 nM

## Input Find the measured Ki of NC(=O)c1cc(CN2C(=O)N(Cc3ccc(F)c(C(N)=O)c3)C(Cc3ccccc3)C(O)C(O)C2Cc2ccccc2)ccc1F (stereo not shown) [15ED] and report it.
## Output < 10 nM

## Input Find the measured Ki of O=C1N(Cc2ccc3[nH]nnc3c2)C(Cc2ccccc2)C(O)C(O)C(Cc2ccccc2)N1CC1CC1 (stereo not shown) [15DP] and report it.
## Output < 10 nM

## Input Find the measured Ki of CNc1n[nH]c2ccc(CN3C(=O)N(Cc4ccc5[nH]nc(NC)c5c4)C(Cc4ccccc4)C(O)C(O)C3Cc3ccccc3)cc12 (stereo not shown) [15DH] and report it.
## Output < 10 nM

## Input Find the measured Ki of O=C1NC(Cc2ccccc2)C(O)C(O)C(Cc2ccccc2)N1Cc1ccc2[nH]nnc2c1 (stereo not shown) [15DM] and report it.
## Output < 10 nM

## Input Find the measured Ki of Nc1ncc(-c2cccc(CN3C(=O)N(Cc4cccc(-c5ccnc(N)n5)c4)C(Cc4ccccc4)C(O)C(O)C3Cc3ccccc3)c2)cn1 (stereo not shown) [15BB] and report it.
## Output 10 to 1000 nM

* * *

# TARGET OR TEST SYSTEM: HIV protease (Human immunodeficiency virus type 1 group M subtype B, UniProt P04585)
# Construct: plasmid containing HIV protease under the control of an inducible T7 promoter; made in house; host or cells: E. coli (inclusion bodies, T7 promoter)
# PROTOCOL DESCRIPTION: biochemical
# Set-up: species or system HIV-1
# STUDY CONDITIONS: Ki
QUANTITY MEASURED: Ki

CCCN1C(=NC#N)N(CCC)C(Cc2ccccc2)C(O)C(O)C1Cc1ccccc1 (stereo not shown) [Example 1CL]: 10 to 1000 nM
N#CN=C1N(CC2CCC2)C(Cc2ccccc2)C(O)C(O)C(Cc2ccccc2)N1CC1CCC1 (stereo not shown) [Example 1CK]: < 10 nM
N#CN=C1N(CC2CC2)[C@H](Cc2ccccc2)[C@H](O)[C@@H](O)[C@@H](Cc2ccccc2)N1CC1CC1 [Example 1BS]: 10 to 1000 nM

## Input Find the measured Ki of C=CCN1C(=O)N(CCCC)C(Cc2ccccc2)C2OC(=O)OC2C1Cc1ccccc1 (stereo not shown) [Example 7E] and report it.
## Output 10 to 1000 nM

* * *

# TARGET OR TEST SYSTEM: single-chain tethered dimer of HIV protease (Human immunodeficiency virus 1, UniProt P04585)
# PROTOCOL DESCRIPTION: biochemical
# Type: biochemical
# Design: fused on or other part: A second copy of the same protease unit is joined to the first by a short peptide tether, giving one polypeptide
# STUDY CONDITIONS: Table 2r; read-out: Ki HPLC
Parameter: Ki. Scope: all listed entries.

O=P1(Oc2ccccc2)N(CC2CC2)[C@H](Cc2ccccc2)[C@H](O)[C@@H](O)[C@@H](Cc2ccccc2)N1CC1CC1 (stereo partly shown) [28C]: 0.01 to 1 µM
CCCCN1[C@H](Cc2ccccc2)[C@H](O)[C@@H](O)[C@@H](Cc2ccccc2)N(CCCC)P1(=O)Oc1ccccc1 (stereo partly shown) [Example 28D]: 0.01 to 1 µM

Switching to the query record.
## Input Find the measured Ki of CN(C)P1(=O)N(CC2CC2)[C@H](Cc2ccccc2)[C@H](O)[C@@H](O)[C@@H](Cc2ccccc2)N1CC1CC1 (stereo partly shown) [28G] and report it.
## Output > 1 µM

* * *

Parameter: Ki. Scope: all listed entries.
# TARGET OR TEST SYSTEM: single-chain tethered dimer of HIV protease (Human immunodeficiency virus 1)
# PROTOCOL DESCRIPTION: biochemical
# Assay type: biochemical

O=C1N(Cc2cc(F)cc(F)c2)C(Cc2ccccc2)C(O)C(O)C(Cc2ccccc2)N1Cc1cc(F)cc(F)c1 (stereo not shown): 10 to 1000 nM

## Input Recall the reported Ki of O=C1N(CC2CCCC2)C(Cc2ccccc2)C(O)C(O)C(Cc2ccccc2)N1CC1CCCC1 (stereo not shown) when tested on single-chain tethered dimer of HIV protease (Human immunodeficiency virus 1).
## Output < 10 nM

## Input Recall the reported Ki of Cc1ccc(CN2C(=O)N(Cc3ccc(C)cc3)C(Cc3ccccc3)C(O)C(O)C2Cc2ccccc2)cc1 (stereo not shown) when tested on single-chain tethered dimer of HIV protease (Human immunodeficiency virus 1).
## Output < 10 nM

## Input Recall the reported Ki of CCCCN1C(=O)N(CC2CC2)C(Cc2ccccc2)C(O)C(O)C1Cc1ccccc1 (stereo not shown) when tested on single-chain tethered dimer of HIV protease (Human immunodeficiency virus 1).
## Output < 10 nM

* * *

# TARGET OR TEST SYSTEM: single-chain tethered dimer of HIV protease (Human immunodeficiency virus 1)
# PROTOCOL DESCRIPTION: biochemical
# Assay type: biochemical
# Set-up: fused on or other part: A second copy of the same protease unit is joined to the first by a short peptide tether, giving one polypeptide
# STUDY CONDITIONS: Table 2e; read-out: K4 HPLC
pKi: −log10 of the molar value.
Parameter: pKi. Scope: all listed entries.

C=CCN1C(=O)N(CC=C)C(CCCCCC)C(O)C(O)C1CCCCCC (centres unmarked) [Example 16AQ]: < 6.00
C=CCN1C(=O)N(CCCC)C(C)C(O)C(O)C1C (centres unmarked) [Example 16F]: < 6.00

Switching to the query record.
## Input Find the measured pKi of O=C1N(CC2CC2)C(Cc2cccs2)C(O)C(O)C(Cc2cccs2)N1CC1CC1 (centres unmarked) [16O] and report it.
## Output > 8.00

* * *

Counter-ions that a name gives are not always drawn.
Parameter: melting point. Scope: all listed entries.

N#CN=C1N(Cc2ccc(N)cc2)C(Cc2ccccc2)C(O)C(O)C(Cc2ccccc2)N1Cc1ccc(N)cc1 (centres unmarked): 226.3 °C

## Input Find the measured melting point of NC(=NO)c1cccc(CN2C(=O)NC(Cc3ccccc3)C(O)C(O)C2Cc2ccccc2)c1 (centres unmarked) [15AT] and report it.
## Output 172 to 179 °C

## Input Find the measured melting point of O=Cc1ccc(CN2C(=O)N(Cc3ccc(C=O)cc3)C(Cc3ccccc3)C(O)C(O)C2Cc2ccccc2)cc1 (centres unmarked) and report it.
## Output 90 to 91 °C

## Input Find the measured melting point of CNc1cccc(CN2C(=O)N(Cc3cccc(NC)c3)C(Cc3ccccc3)C(O)C(O)C2Cc2ccccc2)c1 (centres unmarked) [15D] and report it.
## Output 180.3 °C

## Input Find the measured melting point of NCC(=O)Nc1cccc(CN2C(=O)N(Cc3cccc(NC(=O)CN)c3)C(Cc3ccccc3)C(O)C(O)C2Cc2ccccc2)c1 (centres unmarked) (as salt: HCl) [15R] and report it.
## Output 233.7 °C

## Input Find the measured melting point of CC(=NO)c1cccc(CN2C(=O)N(Cc3cccc(C(C)=NO)c3)C(Cc3ccccc3)C(O)C(O)C2Cc2ccccc2)c1 (centres unmarked) and report it.
## Output 200 to 202 °C

## Input Find the measured melting point of CC(C)CCN1C(=O)N(CCC(C)C)C(Cc2ccccc2)C(O)C(O)C1Cc1ccccc1 (centres unmarked) and report it.
## Output 194 to 195 °C

## Input Find the measured melting point of O=C(O)c1cccc(CN2C(=O)N(CC3CC3)C(Cc3ccccc3)C(O)C(O)C2Cc2ccccc2)c1 (centres unmarked) [15WQ] and report it.
## Output 135 to 137 °C

## Input Find the measured melting point of CC(C)CCCC(C)CCN1C(=O)N(CCC(C)CCCC(C)C)C(Cc2ccccc2)C(O)C(O)C1Cc1ccccc1 (centres unmarked) and report it.
## Output 80 to 82 °C
